Provide the reported Papp at 18 hours, 50 µM of each item.
test protocol: PAMPA (parallel artificial membrane permeability assay)
Type: in vitro ADME
measurement setup: PAMPA; membrane permeation rate (Pe); 50 mM MOPSO buffer pH 6.5 with 5.0% glycocholic acid, 37° C., 18 hours; read-out: iPAMPA Pe
Starred links: 1 amine or outer side, 2 acyl side, 3 side chain; linkers in the order of their positions; H or OH if unused. Positions of bridges follow the written chain, without caps; N, C: chain ends. Non-standard residues stand in square brackets, D forms with d. Residues, ends and D or L forms follow the SMILES beside them. *: point of attachment. NMePhe(3-Cl) = CN[C@@H](Cc1cccc(Cl)c1)C(=O)O; NMeF = CN[C@@H](Cc1ccccc1)C(=O)O; NMeGABA = CN(CCCC(=O)[*:2])[*:1]; NMeI = CC[C@H](C)[C@H](NC)C(=O)O; NMeβAla = CN(CCC(=O)[*:2])[*:1]; NMeL = CN[C@@H](CC(C)C)C(=O)O; NMeV = CN[C@H](C(=O)O)C(C)C; NMeA = CN[C@@H](C)C(=O)O; Piperidide = C1CCN(*)CC1; β3hA = C[C@H](N)CC(=O)O; Abu = CC[C@H](N)C(=O)O; Sar = CNCC(=O)O; tBu = CC(C)(C)*
One number for each entry, in ×10⁻⁶ cm/s.

Examples with answers:
{"columns": ["compound", "Papp at 18 hours, 50 µM, ×10⁻⁶ cm/s"],
 "data": [
  ["CC(C)C[C@@H]1NC(=O)[C@H](C(C)C)NC(=O)[C@H](Cc2ccccc2)NC(=O)CCN(C)C(=O)C[C@@H](C(=O)N2CCCCC2)NC(=O)[C@H](CC(C)C)N(C)C(=O)[C@H](CC(C)C)NC(=O)[C@H](C(C)C)N(C)C(=O)[C@H](CC(C)C)NC(=O)[C@H]([C@@H](C)O)NC(=O)CN(C)C1=O [DP-472] ([NMeβAla]FVL[Sar]TL[NMeV]L[NMeL]D-Piperidide; lactam N-11)", 24],
  ["CC[C@H](C)[C@H]1C(=O)N[C@@H](COC(C)(C)C)C(=O)N[C@@H](C)CC(=O)N(C)[C@@H](C)C(=O)N(C)[C@@H](Cc2cccc(Cl)c2)C(=O)N(C)CC(=O)N(C)[C@@H](CC(C)C)C(=O)N[C@@H]([C@@H](C)O)C(=O)N(C)[C@@H](C)C(=O)N(C)[C@@H](CC(C)C)C(=O)N1C [DP-803] (cyclo([NMeA][NMeL][NMeI]S(tBu)[β3hA][NMeA][NMePhe(3-Cl)][Sar][NMeL]T))", 28],
  ["CC[C@H](C)[C@H](NC(=O)[C@H](CC(C)C)NC(=O)[C@H](CC(C)C)N(C)C(=O)CN(C)C(=O)[C@@H]1CC(=O)N[C@H](C)C(=O)N[C@@H]([C@@H](C)O)C(=O)N(C)[C@@H](CC(C)C)C(=O)N[C@@H]([C@@H](C)CC)C(=O)N(C)[C@@H](CC(C)C)C(=O)N[C@@H](CC(C)C)C(=O)N1)C(=O)N1CCCCC1 [DP-919] ([dA]T[NMeL]I[NMeL]LD[Sar][NMeL]LI-Piperidide; lactam N-7)", 27],
  ["CC(C)C[C@@H]1NC(=O)[C@H](CC(C)C)N(C)C(=O)C[C@@H](C(=O)N2CCCCC2)NC(=O)[C@H](CC(C)C)N(C)C(=O)[C@H](C)N(C)C(=O)[C@H]([C@@H](C)O)NC(=O)[C@H](CC(C)C)N(C)C(=O)[C@H](Cc2ccccc2)N(C)C(=O)[C@H](Cc2c[nH]cn2)NC(=O)[C@H](Cc2ccccc2)N(C)C(=O)[C@H](CC(C)C)N(C)C1=O [DP-906] ([NMeL]L[NMeL][NMeF]H[NMeF][NMeL]T[NMeA][NMeL]D-Piperidide; lactam N-11)", 0.65],
  ["CC(C)C[C@H]1C(=O)N[C@@H](COC(C)(C)C)C(=O)N[C@H](C(=O)N2CCCCC2)CC(=O)N(C)[C@@H](C)C(=O)N(C)[C@@H](C)C(=O)N(C)[C@@H](Cc2ccccc2)C(=O)N(C)[C@@H](CC(C)C)C(=O)N[C@@H]([C@@H](C)O)C(=O)N(C)[C@@H](C)C(=O)N1C [DP-267] ([NMeA][NMeA][NMeF][NMeL]T[NMeA][NMeL]S(tBu)D-Piperidide; lactam N-9)", 25],
  ["CC[C@@H]1NC(=O)C[C@H](C)NC(=O)[C@H](CC(C)C)N(C)C(=O)[C@H](CC(C)C)N(C)C(=O)[C@H](CC(C)C)N(C)C(=O)[C@@H](C)NC(=O)[C@H](CO)NC(=O)[C@H](CC(C)C)N(C)C(=O)[C@H](CC(C)C)NC(=O)[C@H](CC(C)C)N(C)C(=O)CN(C)C1=O [DP-651] (cyclo([Abu][Sar][NMeL]L[NMeL]S[dA][NMeL][NMeL][NMeL][β3hA]))", 24],
  ["CC(C)C[C@H]1C(=O)N[C@@H]([C@@H](C)O)C(=O)N(C)[C@@H](C)C(=O)N(C)[C@@H](CC(C)C)C(=O)N(C)[C@@H](Cc2ccccc2)C(=O)N[C@@H](COC(C)(C)C)C(=O)N[C@H](C(=O)N2CCCCC2)CC(=O)N(C)CCCC(=O)N(C)[C@@H](C)C(=O)N1C [DP-130] ([NMeGABA][NMeA][NMeL]T[NMeA][NMeL][NMeF]S(tBu)D-Piperidide; lactam N-9)", 21]
]}

Would you kindly look at the next entry?
Lookup: Fill blank: measured Papp at 18 hours, 50 µM of the compound CC[C@H](C)[C@@H]1NC(=O)[C@H](CC(C)C)N(C)C(=O)[C@H](C)N(C)C(=O)[C@H]([C@@H](C)O)NC(=O)[C@H](C)N(C)C(=O)[C@H](C(C)C)N(C)C(=O)[C@H](Cc2ccccc2)NC(=O)CCN(C)C(=O)C[C@@H](C(=O)N(C)[C@@H](Cc2ccccc2)C(=O)N[C@@H](C)C(=O)N2CCCCC2)NC(=O)[C@H](C)N(C)C1=O [DP-490] ([NMeβAla]F[NMeV][NMeA]T[NMeA][NMeL]I[NMeA]D[NMeF]A-Piperidide; lactam N-10) is ____.
Found: 11
